# testedOn: GST-PLK3 (Homo sapiens)
# Construct: purchased CarnaBio
# Sequence (Q9H4B4 whole entry): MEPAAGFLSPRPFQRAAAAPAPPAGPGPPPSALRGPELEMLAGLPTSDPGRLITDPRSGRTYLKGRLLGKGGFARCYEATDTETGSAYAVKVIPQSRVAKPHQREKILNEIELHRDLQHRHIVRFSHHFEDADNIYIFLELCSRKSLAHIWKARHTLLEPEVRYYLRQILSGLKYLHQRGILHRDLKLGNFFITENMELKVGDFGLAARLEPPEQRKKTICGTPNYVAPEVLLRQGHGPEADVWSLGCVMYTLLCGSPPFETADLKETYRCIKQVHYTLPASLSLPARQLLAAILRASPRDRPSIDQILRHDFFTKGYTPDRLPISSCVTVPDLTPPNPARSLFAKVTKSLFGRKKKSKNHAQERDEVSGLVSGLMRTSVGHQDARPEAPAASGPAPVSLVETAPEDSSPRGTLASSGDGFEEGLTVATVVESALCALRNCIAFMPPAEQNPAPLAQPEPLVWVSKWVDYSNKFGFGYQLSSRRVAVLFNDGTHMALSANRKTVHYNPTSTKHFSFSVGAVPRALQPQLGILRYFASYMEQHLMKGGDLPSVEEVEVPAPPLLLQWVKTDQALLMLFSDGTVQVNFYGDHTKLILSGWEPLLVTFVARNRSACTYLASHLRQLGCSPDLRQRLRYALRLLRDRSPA
# protocolText: PLK TR-FRET peptide assay, PLK3
# Type: biochemical
# settings: PLK TR-FRET peptide assay, GST-PLK3; read-out: Plk3 IC50
Property: IC50; scope: individual molecules
metricName: IC50

[[record]]
molecule = "CC[C@@]12COCCN1c1nc(-n3ccnc3-c3ccc(F)cc3F)ncc1N(C)C2=O"
result = "10 to 50 µM"

[[record]]
molecule = "CC[C@@H]1C(=O)N(C)c2cnc(-n3cc(C(=O)N(C)C)cn3)nc2N1C1CCCC1"
result = "10 to 50 µM"

[[record]]
molecule = "CC[C@@H]1C(=O)N(C)c2cnc(-n3ccnc3)nc2N1C1CCOC1 (single isomer, unassigned)"
result = "10 to 50 µM"

[[record]]
molecule = "CC[C@@]12COCCN1c1nc(-n3ccnc3-c3ccccc3)ncc1N(C)C2=O (single isomer, unassigned)"
result = "1 to 10 µM"

[[record]]
molecule = "CC[C@@]12CCCN1c1nc(-n3ccnc3-c3cccnc3)ncc1N(C)C2=O"
result = "> 50 µM"

[[record]]
molecule = "CC[C@@H]1CC[C@@]2(CC)C(=O)N(C)c3cnc(-n4ccnc4-c4ccccc4)nc3N12"
result = "< 1 µM"

[[record]]
molecule = "CCC12COCCN1c1nc(-c3cn[nH]c3-c3ccc(F)cc3F)ncc1N(C)C2=O (racemic)"
result = "1 to 10 µM"

[[record]]
molecule = "CC[C@]12COCCN1c1nc(-n3ccnc3-c3ccc(F)cc3F)ncc1N(C)C2=O"
result = "> 50 µM"

[[record]]
molecule = "CC[C@@]12COCCN1c1nc(-c3ccncc3-c3ccccc3)ncc1N(C)C2=O [Example 395]"
result = "1 to 10 µM"

[[record]]
molecule = "CC[C@@H]1C(=O)N(C)c2cnc(-n3nccc3-c3ccccc3)nc2N1C(C)C"
result = "1 to 10 µM"

[[record]]
molecule = "CC[C@@H]1C(=O)N(C)c2cnc(-c3sc(N)nc3-c3ccc(F)cc3)nc2N1C(C)C"
result = "< 1 µM"

[[record]]
molecule = "CN1C(=O)C(CC(F)(F)F)N(CCC(F)(F)F)c2nc(-n3ccnc3-c3ccc(F)cc3)ncc21 (stereo not shown)"
result = "10 to 50 µM"

[[record]]
molecule = "CC[C@@H]1C(=O)N(C)c2cnc(-c3cnncc3-c3ccccc3)nc2N1C1CCCC1"
result = "< 1 µM"

[[record]]
molecule = "CCC1C(=O)N(C)c2cnc(-n3ccnc3-c3ccccc3)nc2N1NC(=O)OC(C)(C)C (stereo not shown)"
result = "> 50 µM"

[[record]]
molecule = "CC[C@@H]1C(=O)N(C)c2cnc(-n3ccnc3-c3cncnc3)nc2N1C1CCC1"
result = "> 50 µM"

[[record]]
molecule = "CC[C@@H]1C(=O)N(C)c2cnc(-n3cnc(C(=O)N4CCOCC4)c3)nc2N1C1CCCC1"
result = "10 to 50 µM"

